- Assay Info: T. gondii growth inhibition with IFN-gamma, primary screen, cell-based (AID 1259416);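 further: host cells are HeLa cells infected with Toxoplasma gondii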
- Measurement Setup: Toxoplasma gondii growth in IFN-gamma-treated host cells; stronger effect = lower value; concentration not given here
Among all 69,000 compounds or so, about 2,600 (3.8%) were called active. Only a selection was taken, and actives are over-represented in it overall.
Threshold-based label: activity change, negative = inhibition under -20% gives Yes, activity change, negative = inhibition not under -20% gives No.

Compound: Cc1cnc(CN(C)C(=O)C(C)(C)NC(=O)c2cccs2)[nH]1
Class Assignment: No
//
Compound: Cc1cc(C(F)F)nn1CC(=O)NCCn1ncc(-c2ccncc2)c1-c1cccs1
Class Assignment: Yes

[ask] Just wondering, is activity change, negative = inhibition of COCCC(=O)N1CCN(CC2CC2)c2nc(C)ccc2C1 below -20%?
[reply] No

[ask] Just wondering, is activity change, negative = inhibition of COC(=O)c1cc(NC(=O)S(=O)(=O)c2ccccc2)cc(C(=O)OC)c1 below -20%?
[reply] No

[ask] Just wondering, is activity change, negative = inhibition of CC(C)C(=O)Nc1cccnc1-c1ccc(C(C)N2CCOCC2)cc1 (stereo unspecified) below -20%?
[reply] No
